Parameter Ki: see the listing below.
- tested_system: 5-HT1D (Homo sapiens)
- Sequence (P28221 whole entry, species assumed): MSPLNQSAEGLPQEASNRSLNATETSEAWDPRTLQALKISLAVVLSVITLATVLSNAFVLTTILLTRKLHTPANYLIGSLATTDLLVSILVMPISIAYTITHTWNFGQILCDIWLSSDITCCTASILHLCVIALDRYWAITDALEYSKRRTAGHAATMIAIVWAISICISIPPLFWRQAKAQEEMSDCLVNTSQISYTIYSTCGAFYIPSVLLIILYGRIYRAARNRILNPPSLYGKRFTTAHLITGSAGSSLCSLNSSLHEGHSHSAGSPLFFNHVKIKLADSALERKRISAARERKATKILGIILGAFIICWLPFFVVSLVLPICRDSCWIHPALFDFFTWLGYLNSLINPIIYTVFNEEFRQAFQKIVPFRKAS
- assay_explanation: Secondary radioligand binding assay (Ki)
Counter-ions that a name gives are not always drawn.
measure: Ki (nM)

>>> test_value("COc1ccc2c(c1)C(=O)N(CCN1CCN(c3ccccc3OC)CC1)C2 [GFR-VII-280-HCl]")
176
>>> test_value("COc1cc2c(cc1OC)C(=O)N(CCCCN1CCN(c3ccccc3OC)CC1)C2 [GFR-VII-285]")
298
>>> test_value("COc1ccc2c(c1)C(=O)N(CCCN1CCN(c3ccccc3OC)CC1)C2 [GFR-VII-273]")
1000
>>> test_value("COc1ccc2c(c1)CN(CCCN1CCN(c3ccccc3OC)CC1)C2=O [GFR-VII-290]")
829

All figures here come from patent US10381110B2.
